# MEASURED ON: Alpha-2A adrenergic receptor (Homo sapiens)
# Sequence (whole entry): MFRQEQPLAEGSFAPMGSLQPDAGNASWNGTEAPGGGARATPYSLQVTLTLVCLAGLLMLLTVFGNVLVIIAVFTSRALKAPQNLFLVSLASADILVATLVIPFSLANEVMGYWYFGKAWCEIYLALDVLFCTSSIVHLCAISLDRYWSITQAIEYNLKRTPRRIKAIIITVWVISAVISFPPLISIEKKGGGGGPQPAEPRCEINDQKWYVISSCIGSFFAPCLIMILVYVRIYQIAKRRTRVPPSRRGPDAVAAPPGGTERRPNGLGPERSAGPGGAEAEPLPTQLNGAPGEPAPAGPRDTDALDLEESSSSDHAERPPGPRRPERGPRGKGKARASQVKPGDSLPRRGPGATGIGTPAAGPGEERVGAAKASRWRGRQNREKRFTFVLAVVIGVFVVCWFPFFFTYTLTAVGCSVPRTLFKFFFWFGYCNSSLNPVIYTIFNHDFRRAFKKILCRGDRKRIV
# ASSAY SUMMARY: Antagonist activity at alpha2a-adrenoceptor (unknown origin) assessed as reduction in adrenaline-induced response by measuring equilibrium binding constant
# PROTOCOL CONDITIONS: filed as antagonist
PROPERTY NAME: Kb (nM)

Worked examples, 4 compounds total:
CC1CCN(c2nsnc2N2CCN(C[C@H]3COc4ccccc4O3)CC2)C1=O (stereo partly specified) ... 449
c1ccc2c(c1)OC[C@H](CN1CCN(c3nsnc3Nc3ccncn3)CC1)O2 ... 459
O=C1CCCN1c1ncsc1N1CCN(C[C@H]2COc3ccccc3O2)CC1 ... 317
CC1(C)CCN(c2nsnc2N2CCN(C[C@H]3COc4ccccc4O3)CC2)C1=O ... 449

A: Cc1c(N2CCNC2=O)c(N2CCN(C[C@H]3COc4ccccc4O3)CC2)nn1C
B: COCc1cccnc1N1CCN(C[C@H]2COc3ccccc3O2)CC1 [ORM-13070]
Inquiry: Which of these two has the smaller recorded Kb: A or B ? Let me know the label of the one you choose.
Reply text: B
(B: 130 nM, A: 449 nM)

----------
# ASSAY SUMMARY: Lipophilicity, logD of the compound
# Assay type: physicochemical
# PROTOCOL CONDITIONS: octanol/water
PROPERTY NAME: logD

Worked examples, 3 compounds total:
COCc1cccnc1N1CCN(C[C@H]2COc3ccccc3O2)CC1 ... 3.3
CN(C)C(=O)c1nsnc1N1CCN(C[C@H]2COc3ccccc3O2)CC1 ... 2.5
COc1scnc1N1CCN(C[C@H]2COc3ccccc3O2)CC1 ... 2.3

a: CC1(C)CCN(c2nsnc2N2CCN(C[C@H]3COc4ccccc4O3)CC2)C1=O
b: O=C1CCCN1c1ncsc1N1CCN(C[C@H]2COc3ccccc3O2)CC1
Inquiry: Would you let me know which has the greater logD value, a or b ? Let me know the label of the one you choose.
Reply text: a

----------
# ASSAY SUMMARY: Permeability across apical to basolateral side in human Caco-2 cells
# Assay type: ADME, cell-based
# PROTOCOL CONDITIONS: read-out: permeability
PROPERTY NAME: Papp A→B (×10⁻⁶ cm/s)

Cc1c(N2CCNC2=O)c(N2CCN(C[C@H]3COc4ccccc4O3)CC2)nn1C ... 2.9

A: O=C1CCCN1c1nsnc1N1CCN(C[C@H]2COc3ccccc3O2)CC1
B: O=C1CCCN1c1ncsc1N1CCN(C[C@H]2COc3ccccc3O2)CC1
Inquiry: Would you let me know which has the greater Papp A→B value, A or B ? Let me know the label of the one you choose.
Reply text: A
(A: 73.6 ×10⁻⁶ cm/s, B: 42.4 ×10⁻⁶ cm/s)
